Target: T1, human EphA7 (Homo sapiens, UniProt Q15375)
T1 construct: a protein of the extracellular region of each human Eph receptor fused with the SEAP protein and the His tag; made in house; host or cells: Expi293F cells (culture supernatant)
T1 sequence (Q15375 28-555 limits assumed): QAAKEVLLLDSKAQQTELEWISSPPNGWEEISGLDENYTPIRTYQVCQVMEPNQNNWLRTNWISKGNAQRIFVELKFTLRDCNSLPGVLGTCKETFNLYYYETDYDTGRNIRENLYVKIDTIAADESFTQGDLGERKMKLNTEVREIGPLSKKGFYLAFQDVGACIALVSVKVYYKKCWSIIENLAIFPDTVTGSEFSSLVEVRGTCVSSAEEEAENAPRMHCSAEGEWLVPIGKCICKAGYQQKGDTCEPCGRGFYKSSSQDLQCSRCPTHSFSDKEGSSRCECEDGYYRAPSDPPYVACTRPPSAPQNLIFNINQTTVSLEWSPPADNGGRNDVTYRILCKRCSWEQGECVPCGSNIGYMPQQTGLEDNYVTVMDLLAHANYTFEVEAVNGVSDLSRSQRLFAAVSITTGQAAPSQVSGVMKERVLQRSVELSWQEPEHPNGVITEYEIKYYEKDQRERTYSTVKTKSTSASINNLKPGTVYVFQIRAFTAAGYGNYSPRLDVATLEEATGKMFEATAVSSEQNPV
Assay: Selectivity ELISA of humanized antibodies for human Eph receptor
Format: binding
Conditions: coated protein 1 nM
MEASURE NAME: hEphA7-SEAP-: absorbance at 450 nm, percentage with respect to hEphA4-SEAP-His as 100%

Field hEphA7-SEAP-: absorbance at 450 nm, percentage with respect to hEphA4-SEAP-His as 100% (entry 73 (antibody, V domains shown, synthetic humanized antibody heavy chain variable region sequence; synthetic humanized antibody light chain variable region sequence) VH: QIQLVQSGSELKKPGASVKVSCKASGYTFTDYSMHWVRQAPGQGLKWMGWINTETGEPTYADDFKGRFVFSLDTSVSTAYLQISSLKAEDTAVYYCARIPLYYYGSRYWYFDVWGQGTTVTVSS VL: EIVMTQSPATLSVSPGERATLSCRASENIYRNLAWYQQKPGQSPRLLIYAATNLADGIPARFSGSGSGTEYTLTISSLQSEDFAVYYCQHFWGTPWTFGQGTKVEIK ) reads 5.6%

Field hEphA7-SEAP-: absorbance at 450 nm, percentage with respect to hEphA4-SEAP-His as 100% (entry 89 (antibody, V domains shown, constant regions without entry; synthetic humanized antibody light chain variable region sequence; synthetic humanized antibody heavy chain variable region sequence) VL: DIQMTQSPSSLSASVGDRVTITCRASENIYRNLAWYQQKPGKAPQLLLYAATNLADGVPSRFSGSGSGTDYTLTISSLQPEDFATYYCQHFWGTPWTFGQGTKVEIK VH: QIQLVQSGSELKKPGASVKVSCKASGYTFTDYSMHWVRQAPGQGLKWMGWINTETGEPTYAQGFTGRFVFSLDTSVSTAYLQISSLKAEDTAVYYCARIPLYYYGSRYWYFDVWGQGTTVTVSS ) reads 5.4%
